Each record here notes measured Mean relative activity.
- Tested on: K562 CRISPRi cells
- testProtocol: Constant region variant library pooled growth screen, K562
- Type: cell-based, human
- conditionsUsed: sgRNA constant region variants; activity relative to the un-modified constant region cr995
readoutName: Mean relative activity

cr205 (nucleic acid, listed as DNA, chemistry not fully specified) guide: GTTTAAGAGCTAAGCTGGAAACAGCATAGCAAGTTTAAATAAGGCTAGTCCGTTATCAATTTGAAAAAATGGGACCGAGTCGGTCCT
0.9515
cr136 (nucleic acid, listed as DNA, chemistry not fully specified) guide: GTTTAAGAGCTAAGCTGGAAACAGCATAGCAAGTTTAAATAAGGTTAATCCGTTATCAACTTGAAAAAGTGGCGACGAGTCGTCGCT
0.9172
cr161 (nucleic acid, listed as DNA, chemistry not fully specified) guide: GTTTAAGAGCTAAGCTGGAAACAGCATAGCAAGTTTAAATAAGGCTAGTCCGTTATCAACTTGAACAAGTGGCACCGACTCGGTGCT
0.9671
